Test system: Staphylococcus aureus
ASSAY: Antibacterial activity against Staphylococcus aureus at 100 ug/ml after 24 hrs by agar well diffusion method
Format: functional
CONDITION LABEL: read-out: DIZ
ATTRIBUTE MEASURED: zone of inhibition at 100 µg/mL (mm)
Could you give me the number in mm? Just the number is fine.

[ask] // lookup zone of inhibition at 100 µg/mL for Nn1c(CS(=O)(=O)Nc2ccc(Cl)cc2)nnc1CS(=O)(=O)c1c[nH]cc1S(=O)(=O)c1ccc(Cl)cc1
[reply] 33

[ask] // lookup zone of inhibition at 100 µg/mL for Cc1ccc(NS(=O)(=O)Cc2nnc(CS(=O)(=O)c3c[nH]nc3S(=O)(=O)c3ccc(C)cc3)n2N)cc1
[reply] 17

[ask] // lookup zone of inhibition at 100 µg/mL for O=S(=O)(Cc1nnc(CS(=O)(=O)c2c[nH]cc2S(=O)(=O)c2ccccc2)o1)Nc1ccccc1
[reply] 14

[ask] // lookup zone of inhibition at 100 µg/mL for O=S(=O)(Cc1nnc(CS(=O)(=O)c2c[nH]cc2S(=O)(=O)c2ccccc2)s1)Nc1ccccc1
[reply] 17

[ask] // lookup zone of inhibition at 100 µg/mL for O=S(=O)(/C=C/S(=O)(=O)c1ccc(Cl)cc1)Cc1nnc(CS(=O)(=O)Nc2ccc(Cl)cc2)s1
[reply] 32

[ask] // lookup zone of inhibition at 100 µg/mL for Nn1c(CS(=O)(=O)Nc2ccccc2)nnc1CS(=O)(=O)c1c[nH]cc1S(=O)(=O)c1ccccc1
[reply] 19

[ask] // lookup zone of inhibition at 100 µg/mL for O=S(=O)(Cc1nnc(CS(=O)(=O)c2c[nH]nc2S(=O)(=O)c2ccccc2)o1)Nc1ccccc1
[reply] 12

[ask] // lookup zone of inhibition at 100 µg/mL for O=S(=O)(Cc1nnc(CS(=O)(=O)c2c[nH]nc2S(=O)(=O)c2ccc(Cl)cc2)o1)Nc1ccc(Cl)cc1
[reply] 23

[ask] // lookup zone of inhibition at 100 µg/mL for Cc1ccc(NS(=O)(=O)Cc2nnc(CS(=O)(=O)c3c[nH]cc3S(=O)(=O)c3ccc(C)cc3)s2)cc1
[reply] 16

[ask] // lookup zone of inhibition at 100 µg/mL for O=S(=O)(Cc1nnc(CS(=O)(=O)c2c[nH]nc2S(=O)(=O)c2ccc(Cl)cc2)s1)Nc1ccc(Cl)cc1
[reply] 29

[ask] // lookup zone of inhibition at 100 µg/mL for Nn1c(CS(=O)(=O)Nc2ccccc2)nnc1CS(=O)(=O)C1CNN=C1S(=O)(=O)c1ccccc1 (stereo unspecified)
[reply] 15

The reported numbers originate from ChEMBL document CHEMBL2040768.
